The measurements presented in this section are drawn from the nanobody polyreactivity screen of Harvey et al. (2022).

test-method-notes: yeast display, Sf9 membrane polyspecificity reagent, FACS + sequencing; frameworks hold sequencing errors

>  <sequence>
QVQLVESGGGLVQAGGSLRLSCAASGSIYGYTMGWYRQAPGKERELVAAINRRADRTYYADSVKGRFTISRDNAKNTVYLQMNSLKPEDTAVYYCNKGGWYTLGYCGQGTQVTVSS

>  <polyreactivity (PSR sort gate)>
high polyreactivity

$$$$
>  <sequence>
QDQLVESGGGLVQAGGSLRLSCAASGSTFSKNTMGWYRQAPGKERELVAAITTRGSSTYYADSVKGRFTISRDNAKNTVYLQMNSLKPEDTAVYYCNAPYRVTGGRYRWYDYWGQGTQVTVSS

>  <polyreactivity (PSR sort gate)>
high polyreactivity

$$$$
>  <sequence>
QVQLVESGGGLVQAGGSLRLSCAASGYTFQYNDMGWYRQAPGKERELVAGISIGGSTNYADSVKGRFTISRDNAKNTVYLQMNSLKPEDTAVYYCAARTLWFPGTTSTSVGSKYGYWGQGTQVSVSS

>  <polyreactivity (PSR sort gate)>
low polyreactivity

$$$$
>  <sequence>
QVQLVESGGGLVQAGGSLRLSCAASGSIFSSNAMGWYRQAPGKERELVAAITSGGSTTYADSVKGRFPISRDNAKNTVYFQMNSLKPEDTAVYYCAADPVYRYYHGWTYLDYDYWGQGTQVTVSS

>  <polyreactivity (PSR sort gate)>
low polyreactivity

$$$$
>  <sequence>
QVQLVETGGGLVQAGGSLRLSCAASGRTYVYNAMGWYRQAPGKERELVAAIDGGGDRTYYADSVKGRFTISRDNAKNTVYLQMNSLKPEDTAVYYCARDPGDTYYYSYQEGDYWGQGTQVTVSS

>  <polyreactivity (PSR sort gate)>
low polyreactivity

$$$$

###

test-method-notes: yeast display, Sf9 membrane polyspecificity reagent, FACS + sequencing; frameworks hold sequencing errors

>  <sequence>
QVQLVESGGGLVQAGGSLRLSCAASGFTLVNNAMGWYRQAPGKERELVAAISKRAGRTYYADSVKGRFTISRDNAKNTVYLQMNSLKPEDTAVYYCNAGKRVEYDYWGQGTQVTVSS

>  <polyreactivity (PSR sort gate)>
high polyreactivity

$$$$
>  <sequence>
QVQLVESGGGLVQEGGSLRLRCAASGSIFPYNAMGWYRQAPGKERELVAAISSTGGRTYYADSVKGRFTISRDNAKNTVYLQMNSLKPEDTAVYYCAARLYDKPGFYSWGEGTQVTVSS

>  <polyreactivity (PSR sort gate)>
high polyreactivity

$$$$
>  <sequence>
QVQLVESGGGLVQAAGSLRLSCAASGFIFQAYAMGWYRQAPGKERELVAAISSSGGSTYYADSVKGRFTISRDNAKYTVYLKRNILKPEDTAVYYCAARSRRVSLLSESYGYWGQGTQVTVSS

>  <polyreactivity (PSR sort gate)>
high polyreactivity

$$$$
>  <sequence>
QDQLVESRGGLVQAGGSLRLSCAASGSIFTVNAMGWYRQAPRKERELVASITWRSGSTYYPDSVKGRFTISRDNAKNSVYLQMNRLKPEDTAFYYCNADSDYPYYPGNFDYWGQGTQVTVSS

>  <polyreactivity (PSR sort gate)>
low polyreactivity

$$$$
>  <sequence>
QVQLVESGGGLVQAGGSLRLSCAASGSTFVHYGMGWYRQAPGKERELVAAISYSGGSTSYADSVKGRFTISRDNAKNTVYLQMNSLKPEDTAVYYCATVRKRRYDYWGQGTQVTVSS

>  <polyreactivity (PSR sort gate)>
low polyreactivity

$$$$
>  <sequence>
QVQLVESGGGLVQAGGSLRLSCAASGRILTTNAMGWYRQAPGKERELVAAITRSGGRTYYADSVKGRFTISRDNAKNTVYLQMNSLKPEDTAVYYCAAATSPGIYDYWGQGTQVTVSS

>  <polyreactivity (PSR sort gate)>
high polyreactivity

$$$$
>  <sequence>
QVQLEESGGGLVQAGGSLRLSCAASGRIFGVYAMGWYRQAPGKERELVAAISWSASSTYYADSVKGRFTISRDNAKNTVYLQMNSLKPEDTAVYYCNAEVLGFYELDYWGQGTQVTVSS

>  <polyreactivity (PSR sort gate)>
high polyreactivity

$$$$
>  <sequence>
QVQIVESGGGLFQAGGSLRLSCAASGITFVFYAKRRYRQAPGKERELVAAISSSGGSTYYADSVKVRFTISRDYAKNSVYLQMKSLKPDDTAVYYCNAIVFSYQRAVRYDYWGQGTQVTVSS

>  <polyreactivity (PSR sort gate)>
high polyreactivity

$$$$
>  <sequence>
QVQLVESGGGLVQAGGSLRLSCAASGGIFARYVKGWYRQAPGKERELVAAISLSGGSTYYADSVKGRFTISRDNAKKTVYLQMNSLNPEDTAVYYCAAIRKKRLTYDYWGQGTEVTVSS

>  <polyreactivity (PSR sort gate)>
high polyreactivity

$$$$
>  <sequence>
QVQLVESGGGLVQAGGSLRLSCAACGSTFFPYAMGWYRQAPGKERELVAAITSGGRTKYADSVKGRFTISRDNAKNTVYLQMNSLKPEDTAVYYCAARGLIKEYGGPYRRFGYWGQGTQVTVSS

>  <polyreactivity (PSR sort gate)>
high polyreactivity

$$$$
>  <sequence>
QDQLVESGGGLVQAGGSLRLSCAASGLIFVGYALGGYRQAPGKERELVAAITSGGSTKYADSVKGRFTSSRDNAKNTVYLQMNSLKPEDTAVYYCAASGWRNWWSARNYYWGQGTQVTVSS

>  <polyreactivity (PSR sort gate)>
high polyreactivity

$$$$
>  <sequence>
QVQLVESGGGLVQAGGSLRLSCAASGRTFTYYAMGWYRQAPGKERELVATIRSGGTTNYADSVKGRFTISRDNAKNTVYLQMNSLKPEDTAVYYCARVLSYVWYYRDPYQYPDYDYWGQGTQVTVSS

>  <polyreactivity (PSR sort gate)>
low polyreactivity

$$$$
>  <sequence>
QVQLVESGGGLVQAGGSLRLICDASGNTIIRYAMGWYRQGPGKERELVAAISYSGGRTYYADSVKGRFTISRDNAKNTVYLQMNSLKTEVTAVYYCNAASRYGCDYWRQGTQVTVSS

>  <polyreactivity (PSR sort gate)>
high polyreactivity

$$$$
>  <sequence>
QVQLVESGGGLFQAGGSLRLSCAASGRTFTWYAMGWYRQAPGKERELVAAISFSGGSTYYADSVKGRFTISRDNAKNTVYLQMNSLKPEDTAVYYCARPSGDAWEGPRMDYWGQGTQVTVSS

>  <polyreactivity (PSR sort gate)>
low polyreactivity

$$$$
>  <sequence>
QVQLVESGGGLVQAGGSLRLSCAASGSIIVWNAMGWYRQAPGKERELVASITSGASTYYADSVKGRFTISRDNAKNTVYLQINSLKPEDTAVYYCAADPWYVAYLLDGYGMDYWGQGTLVTVSS

>  <polyreactivity (PSR sort gate)>
low polyreactivity

$$$$
>  <sequence>
QVQLVESGGGLVQAGGSLRLSSAASGSTFGYYAMGWYRQAPGKERELVAVIRSRTGDTNYADSVKGRFTISRDNAKNTVYLQMNSQKPEDTAVYYCNAALWYGSTIYSYRYGYWGHGTQVTVSS

>  <polyreactivity (PSR sort gate)>
high polyreactivity

$$$$
>  <sequence>
HVQLVESGGGLVQAGGSLRLSCAASGSIFLHNTMGWYRQAPGKERELVAVISKRGGSTYYADSVKGRFTISRDNAKNTVYLQMNCLKPEDTAVYYCNKTRSAGHPGVDGSPYYYWGQGTQVTVSS

>  <polyreactivity (PSR sort gate)>
high polyreactivity

$$$$
>  <sequence>
QVQLVESGGGLVQAGGSLRLSCAASGFTLGSNVMGWYRQAPGKERELVAGISQSGGRTFYADSVKGRFTISRDNAKNTVYLQMNSLKPEDTAVYYCNKGASPDDYDYWGQGTQVTVSS

>  <polyreactivity (PSR sort gate)>
low polyreactivity

$$$$
>  <sequence>
QVQLVESGGGLVQAGGSLRLSCAASGSIFYENVMGWYRQAPGKERELVAGISRSGGRTYYADSVKGRFTISRDNAKNTVYLQMNSLKPEDTAVYYCNAARVYLSEWGQGTQVTVSS

>  <polyreactivity (PSR sort gate)>
high polyreactivity

$$$$
>  <sequence>
QVQLVESGGGLVQAGGSLRLSCAASGRTFYGYAMGLYRQAPGKERELGASIRQSAGRTYYADSVKGRFTISRDNAMNTVYLQMNSLNPEDTAVYYCAASIFLRSFYQQGNYWGQGTQVTVSS

>  <polyreactivity (PSR sort gate)>
high polyreactivity

$$$$
>  <sequence>
QVQLVESGGGLVQAGGSLRLSCAASGSIFRNNAMGWYRQAPGKERELVAVISRRSGNTYYADSVKGRFTISRDNAKNTVYLQMNSLKPEDTAVYYCAADYSKSSIRGDYWGQGTQVTVSS

>  <polyreactivity (PSR sort gate)>
low polyreactivity

$$$$

###

test-method-notes: yeast display, Sf9 membrane polyspecificity reagent, FACS + sequencing; frameworks hold sequencing errors

>  <sequence>
QVQLVESGGGLVQAGGSLRLSCAASGYTFFYAMAWYRQAPGKERELVASITSAASTTYADSVKGRFSISRDNAKNTVYLQMNSLKPEDTAVYYCAASHSWWFYPGYYYWGQGTQVTVSS

>  <polyreactivity (PSR sort gate)>
high polyreactivity

$$$$
>  <sequence>
QVQLVESGGGLVQAGGSLRLSCAASGRIFVFYAMGWYRQAPGKERELVAAISKSVGPTYYADSVKGRFTISRDTAKNTVYLQMNSLKPADTAGYYCNKRSASDLWPQYGYWGQGTQVTVSS

>  <polyreactivity (PSR sort gate)>
low polyreactivity

$$$$
>  <sequence>
QVQLVESGGGLVQAGGSLRLSCADSGSTFGLYAMGGYRQSPGKEREMVAAITWGGGSTYYADSVKVRFTISRDNAKNTVYFQMNSLKPEDTAVYYCAASPIYPVYRRHGYWGQGTQVTVSW

>  <polyreactivity (PSR sort gate)>
high polyreactivity

$$$$
>  <sequence>
QVQLVESGGGLVQAGGSLRLSCAASGSIFKYNPMGWYRQAPGKEMELVATISGGGRTYYADSVKGRFTISRDNAKNTVYLQMNSLKPEDTAVYYCAARKRGTFTYDYWGQGTQVTVSS

>  <polyreactivity (PSR sort gate)>
high polyreactivity

$$$$
>  <sequence>
QVQLVESGGGLVQAGGSLRLTCAASGSIFWPNAMGWYRPAPGKERELVAAISWGTGSTYYADSVKGRFTISRDNAKNTVYLQMNSLKPEDTAVYYCAADGAYLDPYYDYWGQGTQVTVSS

>  <polyreactivity (PSR sort gate)>
low polyreactivity

$$$$
